Where do the numbers come from? From patent US20140045860A1.

system: T. cruzi; test: T. cruzi inhibition assay (beta-galactosidase T. cruzi co-cultured with NIH/3T3 host cells); format: cell-based; conditions: Trypanosoma cruzi, NIH3T3; Table 2
# IC50 annotations
The figure you give is taken to be in µM; do not add the unit.

Worked cases, answers included:
C[C@@H]1CN([C@@H](C)CO)C(=O)c2cc(-c3cccnc3)cnc2O[C@H]1CN(C)Cc1ccc(Oc2ccccc2)cc1 ... 9.27
C[C@@H]1CN([C@@H](C)CO)C(=O)c2cccc(NC(=O)c3ccncc3)c2O[C@@H]1CN(C)Cc1ccc(Oc2ccccc2)cc1 ... 0.00434

Now consider a different compound.
Could you share which IC50 value was measured for COc1ccc(CN(C)C[C@@H]2Oc3c(NC(=O)c4ccncc4)cccc3C(=O)N([C@@H](C)CO)C[C@H]2C)cc1 ?
0.011

###

tested on: P. falc. K1; experiment: In vitro counter screen, P. falc. K1; type: cell-based; settings: same result as ug/mL, in uM; read-out: P. falc. K1 (IC50 uM)
Reported IC50 by item:
Remember to follow the number with its unit.

Example compounds with recorded IC50:
C[C@H]1CN([C@@H](C)CO)C(=O)c2cccc(NC(=O)c3ccncc3)c2O[C@H]1CN(C)Cc1ccc(-c2ccccc2)cc1 ... 1.97 µM
C[C@H](CO)N1C[C@H](C)[C@@H](CN(C)Cc2ccc(C(F)(F)F)cc2)Oc2c(NC(=O)c3ccncc3)cccc2C1=O ... 5.17 µM

Moving on to another compound below.
What measured IC50 goes with C[C@@H]1CN([C@H](C)CO)C(=O)c2cccc(NC(=O)c3ccncc3)c2O[C@H]1CN(C)Cc1ccc2c(c1)OCO2 ?
10.6 µM

###

test: In vitro counter screen, cytotoxicity L6; assay type: cell-based; details: murine; L6 cells; same result as ug/mL, in uM; read-out: cytotox, (IC50 uM)
reported metric: IC50

# input molecule: C[C@@H]1CN([C@H](C)CO)C(=O)c2cccc(NC(=O)c3ccncc3)c2O[C@H]1CN(C)Cc1ccc2c(c1)OCO2 [Compound 8] ; wanted: its IC50
> 183 µM

###

tested on: T. b. rhod.; test: In vitro counter screen, T. b. rhod.; type: cell-based; conditions: read-out: T. b. rhod. (IC50, ug/mL)
reported metric: IC50 (µg/mL)
Please state the figure in µg/mL; there is no need to write the unit.

Known IC50 results, listed for orientation:
C[C@@H]1CN([C@H](C)CO)C(=O)c2cccc(NC(=O)c3ccncc3)c2O[C@H]1CN(C)Cc1ccccc1 ... 35.1
COc1ccc(CN(C)C[C@@H]2Oc3c(NC(=O)c4ccncc4)cccc3C(=O)N([C@H](C)CO)C[C@H]2C)cc1 ... 20.2
C[C@H]1CN([C@@H](C)CO)C(=O)c2cccc(NC(=O)c3ccncc3)c2O[C@H]1CN(C)Cc1ccc(-c2ccccc2)cc1 ... 6.41

Query compound follows.
Form field: reported IC50 of C[C@H]1CN([C@@H](C)CO)C(=O)c2cccc(NC(=O)c3ccncc3)c2O[C@H]1CN(C)Cc1ccccc1
6.14

###

tested on: P. falc. K1; test: In vitro counter screen, P. falc. K1; assay type: cell-based; details: same result as ug/mL, in uM; read-out: P. falc. K1 (IC50 uM)
reported metric: IC50 (µM)
The answer is to be given in µM; state only the numeric part.

Answered examples (2):
C[C@H](CO)N1C[C@H](C)[C@H](CN(C)Cc2ccccc2)Oc2c(NC(=O)c3ccncc3)cccc2C1=O ... 41
C[C@@H]1CN([C@H](C)CO)C(=O)c2cccc(NC(=O)c3ccncc3)c2O[C@H]1CN(C)Cc1ccccc1 ... 9.61

Name the recorded IC50 for COc1ccc(CN(C)C[C@@H]2Oc3c(NC(=O)c4ccncc4)cccc3C(=O)N([C@H](C)CO)C[C@H]2C)cc1 .
13.9

Given C[C@H]1CN([C@@H](C)CO)C(=O)c2cccc(NC(=O)c3ccncc3)c2O[C@H]1CN(C)Cc1ccccc1 , state its recorded IC50.
11.2

Reported IC50, compound C[C@@H]1CN([C@@H](C)CO)C(=O)c2cccc(NC(=O)c3ccncc3)c2O[C@H]1CN(C)Cc1ccc(-c2ccccc2)cc1 : ____
2.07
